Tested on: HAP1 MTAP-intact
method: SDMA in-cell western assay, HAP1 MTAP-intact cell line
Type: cell-based
testParameters: Homo sapiens
propertyLabel: IC50

Sample answers from the record:
CC(C)C(=O)N1CCN(c2cc(C(=O)NC[C@H](O)CN3CCc4cc(OCc5cnco5)ccc4C3)cc(NC3CCC3)n2)CC1 :: < 1000 nM
O=C(NC[C@H](O)CN1CCc2c(ccc(OCc3cn[nH]c3)c2Cl)C1)c1ccnc(NC2CCC2)c1 :: < 1000 nM
O=C(NC[C@H](O)CN1CCc2c(ccc(OCc3cnco3)c2Cl)C1)c1ccc(OC2CCOCC2)cc1 :: ≥ 10000 nM
O=C(NC[C@H](O)CN1CCc2cc(OCc3cnco3)ccc2C1)c1cccc(NC2CCC2)c1 :: < 1000 nM
CC(C)Cc1cc(C(=O)NC[C@H](O)CN2CCc3c(ccc(OCc4cnco4)c3Cl)C2)cc(NC2CCC2)n1 :: ≥ 10000 nM

Request: Endpoint output: IC50 of "CCCC(=O)N1CCC(Nc2cc(C(=O)NC[C@H](O)CN3CCc4c(ccc(OCc5cnco5)c4C)C3)ncn2)CC1" . Value?
Response: ≥ 10000 nM

Request: Try this compound too: "CC(C)(C)c1cc(C(=O)NC[C@H](O)CN2CCc3cc(OCc4cnco4)ccc3C2)cc(NC2CCC2)n1"
Response: ≥ 10000 nM

Request: Try this compound too: "Cc1ncoc1COc1ccc2c(c1)CCN(C[C@@H](O)CNC(=O)c1ccnc(NC3CC4(CC4)C3)c1)C2"
Response: < 1000 nM

Request: Try this compound too: "Cc1ncoc1COc1ccc2c(c1)CCN(C[C@@H](O)CNC(=O)c1cc(NC3COC3)nc(N3CCN(C)CC3)n1)C2"
Response: 1000 to 10000 nM

Request: Try this compound too: "O=C(NC[C@H](O)CN1CCc2cc(OCc3cnco3)ccc2C1)c1ccnc(NC2CN(C(=O)C3CCC3)C2)c1"
Response: 1000 to 10000 nM
